We begin with a simple list: items and their reported protein stability index.
B1: ZNF24 (parent)
chain: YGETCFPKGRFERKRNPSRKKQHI

# Variants of: B1
# METHOD DESCRIPTION: protein stability index of a GFP-peptide fusion (GPS, HEK-293T) (PSI 1-6); higher = more stable;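 also: lentivirally expressed fusions sorted by FACS into six bins by GFP to DsRed ratio, PSI derived from sequencing read proportions per bin multiplied by bin number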
# TEST SETTINGS: c terminus: a fixed tail appended
// return a plain number; no unit text

>  <SEQUENCE CODE>
YGETCFPKGRFERKRNPSRKKQHH [I24H]

>  <QUANTITATIVE READOUT>
2.93

$$$$

Measured protein stability index of YQETCFPKGRFERKRNPSRKKQHI [G2Q] : 3.44

# protein stability index of YGETCFPKGRFERKRFPSRKKQHI [N16F] = 2.23

Looking up YGETNFPKGRFERKRNPSRKKQHI [C5N] , I found its protein stability index recorded as 2.43

YGETCFPGGRFERKRNPSRKKQHI [K8G] yielded protein stability index of 2.93

For record YGETCFPKGRFERKRNPSRKIQHI [K21I] the listed protein stability index is 2.38

// recorded protein stability index for YGETCFPKGRFERKRWPSRKKQHI [N16W] : 2.21

According to the records, this variant YFETCFPKGRFERKRNPSRKKQHI [G2F] displays protein stability index of 2.51

Please fill in: protein stability index reported for YGETCFPKGRFERKRNPSRKKQKI [H23K] = 3.22

protein stability index for YGITCFPKGRFERKRNPSRKKQHI [E3I] is 2.71

protein stability index reported for this variant YGETCFQKGRFERKRNPSRKKQHI [P7Q] : 2.26

Lab note: measured protein stability index of YGETCFPKGRFERKRNMSRKKQHI [P17M] was 2.79
